Molecular target: T1, GFP-9S library array, motif 4 ND N98M;D124C (synthetic construct, N98M;D124C)
T1 chain: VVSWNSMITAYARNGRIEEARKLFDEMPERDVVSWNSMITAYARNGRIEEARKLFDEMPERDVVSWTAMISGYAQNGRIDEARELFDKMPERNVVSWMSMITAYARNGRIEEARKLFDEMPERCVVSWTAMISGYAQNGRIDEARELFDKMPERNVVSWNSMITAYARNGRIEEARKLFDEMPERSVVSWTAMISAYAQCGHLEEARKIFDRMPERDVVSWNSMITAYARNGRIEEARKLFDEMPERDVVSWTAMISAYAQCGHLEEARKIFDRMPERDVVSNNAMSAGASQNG
Assay: high-throughput RNA pulldown from lysate on Ni-NTA beads; HRP: 50 mM Tris pH 8, 150 mM NaCl, 1 mM beta-mercaptoethanol, 50 ug/ml BSA, 3 ug/ml yeast RNA, 0.5% heparin; ITC and FP: Tris pH 8, 200 mM KCl, 5% glycerol; MST: 50 mM Tris pH 8, 200 mM NaCl, 1 mM DTT, BSA, heparin, 0.05% Tween 20
Conditions: tags: N-terminal His-eGFP; label: 5' Cy5
# Kd annotations
Give the value, in units of nM, as a plain number.

Record AUUACACGUGA (ssRNA) [Cy5-rpoA] . Reported Kd: 99.7

We now examine a further binder.
Record AUUAGACGUGA (ssRNA) [Cy5-rpoA-G] . Reported Kd: 68.8
